test system: tumorsphere-derived cells; assay: Sphere forming assay, tumorsphere-derived cells; format: cell-based, mouse
measured_endpoint: IC50 (nM)
State the answer as a number, implicitly in nM.

GET /values?readout=IC50&system=tumorsphere-derived cells&item= Cn1ncnc2c(=O)n(C)c(=O)nc1-2 [PKF118–310] 940
